TGT: Catechol O-methyltransferase (Homo sapiens) (UniProt P21964)
Sequence (P21964 whole entry): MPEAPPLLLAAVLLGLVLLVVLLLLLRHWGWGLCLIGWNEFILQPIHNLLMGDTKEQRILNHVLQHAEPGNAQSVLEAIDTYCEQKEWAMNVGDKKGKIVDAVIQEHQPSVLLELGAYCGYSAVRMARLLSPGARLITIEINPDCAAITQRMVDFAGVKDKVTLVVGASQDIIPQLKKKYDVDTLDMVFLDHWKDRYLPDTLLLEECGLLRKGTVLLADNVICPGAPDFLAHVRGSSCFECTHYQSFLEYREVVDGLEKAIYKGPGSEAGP
PROTOCOL_NOTES: Inhibition of S-COMT (unknown origin) assessed as scopoletin formation by measuring fluorescence using 6,7-dihydroxycoumarin as substrate at 100 uM and measured for 60 mins by fluorescence based microplate reader assay
Calls of active or inactive are those of the source. The calls are words filed in the database; no cut-off is given here.
Labels: active, inactive

MOLECULAR_STRING: N#CCc1ccc(O)c(O)c1
CATEGORY: active

MOLECULAR_STRING: N#CCc1cc(O)c(O)cc1[N+](=O)[O-]
CATEGORY: active

MOLECULAR_STRING: N#CCCc1ccc(O)c(O)c1
CATEGORY: active

MOLECULAR_STRING: Oc1cc2c(cc1O)CNCC2
CATEGORY: inactive

MOLECULAR_STRING: NCCc1cc(O)c(O)cc1Br
CATEGORY: inactive

MOLECULAR_STRING: NCCc1cc(O)c(O)cc1O
CATEGORY: active

MOLECULAR_STRING: NCCc1cc(O)c(O)cc1C(=O)O
CATEGORY: inactive

MOLECULAR_STRING: N#Cc1ccc(O)c(O)c1
CATEGORY: active

MOLECULAR_STRING: N#CCCc1cc(O)c(O)cc1[N+](=O)[O-]
CATEGORY: active

====

TGT: UniProtKB P21964
PROTOCOL_NOTES: Inhibition of S-COMT (unknown origin) assessed as scopoletin formation by measuring fluorescence using 6,7-dihydroxycoumarin as substrate at 10 uM and measured for 60 mins by fluorescence based microplate reader assay
The source made the active and inactive calls. The calls are words filed in the database; no cut-off is given here.
Labels: 1.0 (active), 0.0 (inactive)

MOLECULAR_STRING: N#Cc1cc(O)c(O)cc1CCN
CATEGORY: 0.0
--
MOLECULAR_STRING: N#CCc1ccc(O)c(O)c1
CATEGORY: 0.0
--
MOLECULAR_STRING: NCCc1cc(O)c(O)cc1C(=O)O
CATEGORY: 0.0
--
MOLECULAR_STRING: N#Cc1ccc(O)c(O)c1
CATEGORY: 0.0
--
MOLECULAR_STRING: N#CCCc1cc(O)c(O)cc1[N+](=O)[O-]
CATEGORY: 0.0
--
MOLECULAR_STRING: NCCc1cc(O)c(O)cc1[N+](=O)[O-]
CATEGORY: 0.0
--
MOLECULAR_STRING: N#CCc1cc(O)c(O)cc1[N+](=O)[O-]
CATEGORY: 1.0
--
MOLECULAR_STRING: Oc1cc2c(cc1O)CNCC2
CATEGORY: 0.0
--
MOLECULAR_STRING: N#CCCc1ccc(O)c(O)c1
CATEGORY: 0.0
--
MOLECULAR_STRING: NCCc1cc(O)c(O)cc1Br
CATEGORY: 0.0
--
MOLECULAR_STRING: NCCc1cc(O)c(O)cc1O
CATEGORY: 0.0

====

Examples of compounds with documented pKa at 200 µM follow.
PROTOCOL_NOTES: Dissociation constant, pKa of compound pH 3.01 to 12.36 at 0.2 mM by spectroscopic analysis
Assay type: physicochemical
READOUT_TYPE: pKa at 200 µM

COMPOUND: N#Cc1ccc(O)c(O)c1
OBSERVED_RESULT: 7.45
--
COMPOUND: N#CCc1ccc(O)c(O)c1
OBSERVED_RESULT: 9.6
--
COMPOUND: NCCc1ccc(O)c(O)c1 [DOPAMINE]
OBSERVED_RESULT: 8.66
--
COMPOUND: N#CCc1cc(O)c(O)cc1[N+](=O)[O-]
OBSERVED_RESULT: 6.23
--
COMPOUND: NCCc1cc(O)c(O)cc1[N+](=O)[O-]
OBSERVED_RESULT: 6.33

All values here come from ChEMBL document CHEMBL5257094.
